B1: MATN2 (parent)
chain: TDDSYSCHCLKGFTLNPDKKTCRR

Variants of: B1
experimentDescription: protein stability index of a GFP-peptide fusion (GPS, HEK-293T) (PSI 1-6); higher = more stable;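 also: lentivirally expressed fusions sorted by FACS into six bins by GFP to DsRed ratio, PSI derived from sequencing read proportions per bin multiplied by bin number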
studyConditions: c terminus: a fixed tail appended
// reported protein stability index for each item listed
endpointName: protein stability index

itemSequence: TIDSYSCHCLKGFTLNPDKKTCRR [D2I]
endpointName: protein stability index
observedMeasurement: 2.02
//
itemSequence: TDDSYSCHILKGFTLNPDKKTCRR [C9I]
endpointName: protein stability index
observedMeasurement: 3.77
//
itemSequence: TDDSYSPHCLKGFTLNPDKKTCRR [C7P]
endpointName: protein stability index
observedMeasurement: 3.65
//
itemSequence: TDDSYSCHCLKGFTLSPDKKTCRR [N16S]
endpointName: protein stability index
observedMeasurement: 2.24
//
itemSequence: TDDSYSCHCLKGFTLNPDKKTYRR [C22Y]
endpointName: protein stability index
observedMeasurement: 1.94
//
itemSequence: TDDTYSCHCLKGFTLNPDKKTCRR [S4T]
endpointName: protein stability index
observedMeasurement: 2.04
//
itemSequence: TDDSYSCHCLKGFTLNRDKKTCRR [P17R]
endpointName: protein stability index
observedMeasurement: 2.35
//
itemSequence: TDDSYSCHCLKGNTLNPDKKTCRR [F13N]
endpointName: protein stability index
observedMeasurement: 1.81
//
itemSequence: TDDSYSCPCLKGFTLNPDKKTCRR [H8P]
endpointName: protein stability index
observedMeasurement: 1.63
//
itemSequence: TDDSYSCHCKKGFTLNPDKKTCRR [L10K]
endpointName: protein stability index
observedMeasurement: 2.63
//
itemSequence: TDDSYSCHCLKGFQLNPDKKTCRR [T14Q]
endpointName: protein stability index
observedMeasurement: 1.67
